Test: Anticancer human tumor 997537-175-T-J1-PDC patient-derived colon adenocarcinoma cell line growth inhibition [POLQ];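 note: luminescence signal used as a surrogate for viable cells; spheroids exposed to drugs for seven days before readout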
Details: 997537-175-T-J1-PDC complex spheroid viability, combination with POLQ inhibitors; second compound 3.16 µM; first compound 3.16 µM; active compounds read low

# Molecule, viability, T/C
measured = [
    ("O=C(Nc1ccc(O)c(NS(=O)(=O)c2ccc(F)cc2)c1)c1ccc(-c2ccccc2)cc1 + COC1C(OC(N)=O)C(O)C(Oc2ccc3c(O)c(NC(=O)c4ccc(O)c(CC=C(C)C)c4)c(=O)oc3c2C)OC1(C)C", "97.5%"),
    ("CC1COCCN1c1cc(-c2ccnn2C)c2ccnc(-c3ccn[nH]3)c2n1 (stereo not drawn) + Cc1cccc(N(C)C(=O)C2C(O)CCN2c2nc(C)cc(C(F)(F)F)c2C#N)c1", "67.1%"),
    ("CC(C)n1c(=O)n(C)c2cnc3cc(F)c(-c4ccc(OCCCN5CCCCC5)nc4)cc3c21 + COC1C(OC(N)=O)C(O)C(Oc2ccc3c(O)c(NC(=O)c4ccc(O)c(CC=C(C)C)c4)c(=O)oc3c2C)OC1(C)C", "80%"),
]

Data credit: PubChem BioAssay AID1963825
